# System: A549 lung cancer cells
# testSummary: CTG cell proliferation, in vitro growth inhibition of A549 lung cancer cells
# Assay type: cell-based
# details: Homo sapiens, 5 μM, 72 hours, CellTiter-Glo
Known inhibition at 5 µM of a selection of molecules
assayEndpoint: inhibition at 5 µM (%)

molecule: C[C@H]1CC[C@@]2(OC1)O[C@H]1C[C@H]3[C@@H]4CC[C@@H]5CC(NC(=O)CN(C)C)CC[C@]5(C)[C@H]4CC[C@]3(C)[C@H]1[C@@H]2C (stereo partly drawn)
assayEndpoint: inhibition at 5 µM
resultNumber: 86.2
--
molecule: C[C@H]1CC[C@@]2(OC1)O[C@H]1C[C@H]3[C@@H]4CC[C@@H]5CC(NC(=O)CC(=O)NC6CCN(C)CC6)CC[C@]5(C)[C@H]4CC[C@]3(C)[C@H]1[C@@H]2C (stereo partly drawn)
assayEndpoint: inhibition at 5 µM
resultNumber: 82.2
--
molecule: C[C@H]1CC[C@@]2(OC1)O[C@H]1C[C@H]3[C@@H]4CC[C@@H]5CC(NC(=O)CC(=O)N6CC7CNCC7C6)CC[C@]5(C)[C@H]4CC[C@]3(C)[C@H]1[C@@H]2C (stereo partly drawn)
assayEndpoint: inhibition at 5 µM
resultNumber: 57.3

====

# Test system: A549 lung cancer cells
# testSummary: CTG cell proliferation, in vitro growth inhibition of A549 lung cancer cells
# Assay type: cell-based
# details: Homo sapiens, 5 μM, 72 hours, CellTiter-Glo
Could you label it condition met if measured inhibition at 5 µM is 70% or higher, and condition not met otherwise?

compound: C[C@H]1CC[C@@]2(OC1)O[C@H]1C[C@H]3[C@@H]4CC[C@@H]5CC(NC(=O)CCN6CCN(C)CC6)CC[C@]5(C)[C@H]4CC[C@]3(C)[C@H]1[C@@H]2C (stereo partly drawn)
cat: condition met
--
compound: C[C@H]1CC[C@@]2(OC1)O[C@H]1C[C@H]3[C@@H]4CC[C@@H]5CC(NC(=O)CC(=O)N6CCNCC6)CC[C@]5(C)[C@H]4CC[C@]3(C)[C@H]1[C@@H]2C (stereo partly drawn)
cat: condition not met
--
compound: C[C@H]1CC[C@@]2(OC1)O[C@H]1C[C@H]3[C@@H]4CC[C@@H]5CC(NC(=O)CC(=O)N6CCN(CCN7CCCC7)CC6)CC[C@]5(C)[C@H]4CC[C@]3(C)[C@H]1[C@@H]2C (stereo partly drawn)
cat: condition met
--
compound: C[C@H]1CC[C@@]2(OC1)O[C@H]1C[C@H]3[C@@H]4CC[C@@H]5CC(NC(=O)CC(=O)NCCCN6CCOCC6)CC[C@]5(C)[C@H]4CC[C@]3(C)[C@H]1[C@@H]2C (stereo partly drawn)
cat: condition not met
--
compound: C[C@H]1CC[C@@]2(OC1)O[C@H]1C[C@H]3[C@@H]4CC[C@@H]5CC(NC(=O)CC(=O)NCC6CCN(C)CC6)CC[C@]5(C)[C@H]4CC[C@]3(C)[C@H]1[C@@H]2C (stereo partly drawn)
cat: condition met
--
compound: C[C@H]1CC[C@@]2(OC1)O[C@H]1C[C@H]3[C@@H]4CC[C@@H]5CC(NC(=O)CC(=O)N6CCN(C)CC6)CC[C@]5(C)[C@H]4CC[C@]3(C)[C@H]1[C@@H]2C (stereo partly drawn)
cat: condition not met
--
compound: C[C@H]1CC[C@@]2(OC1)O[C@H]1C[C@H]3[C@@H]4CC[C@@H]5CC(NC(=O)CCN(C)C)CC[C@]5(C)[C@H]4CC[C@]3(C)[C@H]1[C@@H]2C (stereo partly drawn)
cat: condition met
--
compound: C[C@H]1CC[C@@]2(OC1)O[C@H]1C[C@H]3[C@@H]4CC[C@@H]5CC(NC(=O)C6CCN(C)CC6)CC[C@]5(C)[C@H]4CC[C@]3(C)[C@H]1[C@@H]2C (stereo partly drawn)
cat: condition not met
--
compound: C[C@H]1CC[C@@]2(OC1)O[C@H]1C[C@H]3[C@@H]4CC[C@@H]5CC(NC(=O)CC(=O)N6CCC(N7CCCCC7)CC6)CC[C@]5(C)[C@H]4CC[C@]3(C)[C@H]1[C@@H]2C (stereo partly drawn)
cat: condition not met
